target: c-Met protein receptors on HUVEC (human, UniProt P08581 25-1390); assay: cell-based or functional assay
Sequence (P08581 25-1390): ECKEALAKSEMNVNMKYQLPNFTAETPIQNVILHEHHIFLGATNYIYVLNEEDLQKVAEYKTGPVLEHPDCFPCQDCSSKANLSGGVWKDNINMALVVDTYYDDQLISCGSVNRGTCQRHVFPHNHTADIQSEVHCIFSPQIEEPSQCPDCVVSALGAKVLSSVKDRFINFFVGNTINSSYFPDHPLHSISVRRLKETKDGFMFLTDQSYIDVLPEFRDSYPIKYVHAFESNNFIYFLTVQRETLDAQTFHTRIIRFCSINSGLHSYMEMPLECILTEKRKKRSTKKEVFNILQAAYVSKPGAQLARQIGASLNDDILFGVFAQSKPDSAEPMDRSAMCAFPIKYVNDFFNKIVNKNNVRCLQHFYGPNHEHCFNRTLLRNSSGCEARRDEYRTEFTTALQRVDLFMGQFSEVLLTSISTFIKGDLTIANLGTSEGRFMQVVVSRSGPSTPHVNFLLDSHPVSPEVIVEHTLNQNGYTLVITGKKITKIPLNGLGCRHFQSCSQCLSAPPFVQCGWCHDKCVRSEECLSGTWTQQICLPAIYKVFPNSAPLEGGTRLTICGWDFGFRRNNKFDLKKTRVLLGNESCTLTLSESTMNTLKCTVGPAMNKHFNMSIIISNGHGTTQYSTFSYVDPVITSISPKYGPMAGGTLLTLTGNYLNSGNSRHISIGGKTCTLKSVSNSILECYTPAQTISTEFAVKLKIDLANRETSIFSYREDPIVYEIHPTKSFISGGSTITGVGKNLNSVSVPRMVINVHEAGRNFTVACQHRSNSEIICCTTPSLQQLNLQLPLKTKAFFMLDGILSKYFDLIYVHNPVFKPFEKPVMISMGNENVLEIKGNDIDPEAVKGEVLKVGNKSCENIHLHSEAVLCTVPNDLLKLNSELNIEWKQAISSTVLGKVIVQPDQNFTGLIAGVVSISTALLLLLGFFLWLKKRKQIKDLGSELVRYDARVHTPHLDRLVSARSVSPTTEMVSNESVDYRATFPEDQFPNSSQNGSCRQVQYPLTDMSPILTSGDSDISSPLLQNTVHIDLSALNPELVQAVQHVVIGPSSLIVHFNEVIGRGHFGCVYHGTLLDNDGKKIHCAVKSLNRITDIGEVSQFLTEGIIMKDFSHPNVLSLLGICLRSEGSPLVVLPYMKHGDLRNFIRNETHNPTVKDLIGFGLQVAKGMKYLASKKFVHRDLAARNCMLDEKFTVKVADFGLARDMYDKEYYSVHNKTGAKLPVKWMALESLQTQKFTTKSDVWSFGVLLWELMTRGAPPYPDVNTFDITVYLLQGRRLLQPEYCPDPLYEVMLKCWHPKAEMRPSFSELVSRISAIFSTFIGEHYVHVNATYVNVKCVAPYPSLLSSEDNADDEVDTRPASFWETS
Quantity kind: Relative Migration (%), HUVEC migration assay, 90 ng/ml
Numeric answer only, unit % assumed.

INPUT: Give the measured Relative Migration (%), HUVEC migration assay, 90 ng/ml of VH4/Vk0 (antibody, IgG1, V domains shown, Full IgG1/kappa expressed in HEK 293 EBNA cells) VH: QVQLVQSGAEVKKPGSSVKVSCQGSGYSFPTHWITWVRQAPGQGLEWMGTIDPTDSYNFYGPSFQGRVTITADSSTSTAYMELSSLRSEDTAMYYCARDGNYYDSRGYYYDTFDMWGQGTLVTVSS VL: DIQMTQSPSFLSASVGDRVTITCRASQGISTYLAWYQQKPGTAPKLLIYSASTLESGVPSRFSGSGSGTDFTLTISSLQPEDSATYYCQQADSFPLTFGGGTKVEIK .
OUTPUT: 122

INPUT: Give its Relative Migration (%), HUVEC migration assay, 90 ng/ml value. Item: VH0/Vk0 (antibody, IgG1, V domains shown, Full IgG1/kappa with the variable domains of 1E4; also called 1E4 antibody variant including the constant domain where the residues were substituted) VH: QVQLVQSGAEVKKPGESLRISCQGSGYSFPTHWITWVRQMPGKGLEWMGTIDPTDSYNFYGPSFQGHVTISADSSSSTAYLQWSSLKASDTAMYYCARDGNYYDSRGYYYDTFDMWGQGTLVTVSS VL: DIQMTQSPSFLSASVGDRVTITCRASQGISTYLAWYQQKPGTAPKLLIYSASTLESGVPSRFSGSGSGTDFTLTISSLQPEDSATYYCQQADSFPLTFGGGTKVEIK
OUTPUT: 150

INPUT: Please report the recorded Relative Migration (%), HUVEC migration assay, 90 ng/ml for VH6/Vk2 (antibody, IgG1, V domains shown, Full IgG1/kappa expressed in HEK 293 EBNA cells) VH: QVQLVQSGAEVKKPGSSVKVSCKASGYSFPTHWITWVRQAPGQGLEWMGTIDPTDSYNFYGPSFQGRVTITADKSTSTAYMELSSLRSEDTAVYYCARDGNYYDSRGYYYDTFDMWGQGTLVTVSS VL: DIQMTQSPSSLSASVGDRVTITCRASQGISTYLAWYQQKPGKAPKLLIYSASTLESGVPSRFSGSGSGTDFTLTISSLQPEDFATYYCQQADSFPLTFGGGTKVEIK .
OUTPUT: 154

INPUT: Consider the binder shown here: VH6/Vk0 (antibody, IgG1, V domains shown, Full IgG1/kappa expressed in HEK 293 EBNA cells) VH: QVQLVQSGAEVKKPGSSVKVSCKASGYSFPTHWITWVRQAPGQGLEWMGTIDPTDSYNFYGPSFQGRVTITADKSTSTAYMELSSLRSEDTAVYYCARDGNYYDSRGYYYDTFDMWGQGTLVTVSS VL: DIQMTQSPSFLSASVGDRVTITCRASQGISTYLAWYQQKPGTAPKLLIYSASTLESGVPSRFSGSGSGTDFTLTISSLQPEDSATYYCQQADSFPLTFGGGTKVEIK What is its recorded Relative Migration (%), HUVEC migration assay, 90 ng/ml?
OUTPUT: 152

INPUT: Please report the recorded Relative Migration (%), HUVEC migration assay, 90 ng/ml for VH5/Vk2 (antibody, IgG1, V domains shown, Full IgG1/kappa expressed in HEK 293 EBNA cells) VH: QVQLVQSGAEVKKPGSSVKVSCQGSGYSFPTHWITWVRQAPGQGLEWMGTIDPTDSYNFYGPSFQGRVTITADSSTSTAYMELSSLRSEDTAVYYCARDGNYYDSRGYYYDTFDMWGQGTLVTVSS VL: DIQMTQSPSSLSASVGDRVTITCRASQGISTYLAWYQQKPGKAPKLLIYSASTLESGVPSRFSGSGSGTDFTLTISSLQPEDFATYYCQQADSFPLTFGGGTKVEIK .
OUTPUT: 176
